- assayed-system: rat VPAC1 receptor (Rattus norvegicus)
- Sequence (P30083 31-459): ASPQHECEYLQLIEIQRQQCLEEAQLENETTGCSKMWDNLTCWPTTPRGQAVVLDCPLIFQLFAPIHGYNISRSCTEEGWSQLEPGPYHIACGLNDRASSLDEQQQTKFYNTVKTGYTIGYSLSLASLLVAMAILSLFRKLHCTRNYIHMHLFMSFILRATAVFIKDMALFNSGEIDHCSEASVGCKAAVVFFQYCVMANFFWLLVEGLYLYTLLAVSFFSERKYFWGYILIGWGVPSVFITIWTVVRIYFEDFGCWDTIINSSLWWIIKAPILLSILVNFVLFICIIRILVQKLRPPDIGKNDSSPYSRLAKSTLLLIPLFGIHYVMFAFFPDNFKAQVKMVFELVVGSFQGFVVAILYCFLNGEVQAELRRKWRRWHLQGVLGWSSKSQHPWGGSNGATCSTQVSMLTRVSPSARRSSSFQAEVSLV
- run-description: Adenylate cyclase activation on membrane preparations expressing rat VPAC1 receptor
- Format: biochemical
- Parameters: expressed in transfected cells; host or cells: CHO cells, crude membranes
- protocol-conditions: maximal increase in cyclic AMP production (over basal) per minute and per mg protein
- Description: All studies are performed on crude membranes prepared from three different cell cultures expressing the different recombinant receptors, using methodology that is known in the literature. Duplicate values are obtained for each assay. The selectivity of the VPAC2 receptor peptide agonists of the present invention are tested on the rat VPAC1 and VPAC2 receptors recombinantly expressed in CHO cells. The compound of the invention were evaluated in receptor binding & adenylate cyclase activation assays. […]
Where no end group is shown, it is not given here. [ ]: non-standard residue; d: D form. The star is where a group is joined. Hexanoyl = CCCCCC(=O)*; Aib = CC(C)(N)C(=O)O
measured-endpoint: VPAC1 cAMP max

[[record]]
substance = "Hexanoyl-HSDAVFTDNYTRLR[Aib]QVAA[Aib]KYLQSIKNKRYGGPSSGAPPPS [Agonist P261]"
value_reported = 126

[[record]]
substance = "Hexanoyl-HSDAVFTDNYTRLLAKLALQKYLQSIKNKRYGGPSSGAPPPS [Agonist P119]"
value_reported = 207

[[record]]
substance = "H-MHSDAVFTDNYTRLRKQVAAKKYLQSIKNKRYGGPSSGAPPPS [Agonist P104]"
value_reported = 195

[[record]]
substance = "Hexanoyl-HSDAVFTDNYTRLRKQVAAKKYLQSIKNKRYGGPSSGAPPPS [Agonist P31]"
value_reported = 200


* * *

- assayed-system: human VPAC2 (Homo sapiens)
- Construct: expressed in transfected cells
- Sequence (P41587 24-438): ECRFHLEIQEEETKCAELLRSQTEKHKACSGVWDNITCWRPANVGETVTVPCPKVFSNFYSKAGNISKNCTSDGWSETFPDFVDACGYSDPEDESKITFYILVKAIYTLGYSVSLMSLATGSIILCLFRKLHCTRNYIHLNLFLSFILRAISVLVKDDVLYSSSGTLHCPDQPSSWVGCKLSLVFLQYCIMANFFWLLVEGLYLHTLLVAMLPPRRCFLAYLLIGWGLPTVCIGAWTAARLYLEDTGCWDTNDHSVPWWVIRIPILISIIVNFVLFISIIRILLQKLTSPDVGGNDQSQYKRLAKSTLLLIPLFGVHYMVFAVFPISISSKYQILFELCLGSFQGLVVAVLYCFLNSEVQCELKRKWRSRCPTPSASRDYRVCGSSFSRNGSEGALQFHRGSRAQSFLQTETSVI
- run-description: Filter binding assay, membranes of stable VPAC2 cell line, 125I-labeled VIP tracer (Table 2)
- protocol-conditions: read-out: Human VPAC2 Receptor Binding
pIC50: −log10 of the molar value. Where no end group is shown, it is not given here. [ ]: non-standard residue; d: D form. The star is where a group is joined. Orn = NCCC[C@H](N)C(=O)O; Hexanoyl = CCCCCC(=O)*; Aib = CC(C)(N)C(=O)O
measured-endpoint: pIC50

[[record]]
substance = "HSDAVFTDNYTRLRKQVAAKKYLQSIKNGRPSSGAPPPS [Agonist P92]"
assayed_system = "human VPAC2 (Homo sapiens)"
measured_endpoint = "pIC50"
value_reported = 9.07

[[record]]
substance = "HSDAVFTDNYTRAAAKVAAKKYLQSIKNKRYGGPSSGAPPPS [Agonist P88]"
assayed_system = "human VPAC2 (Homo sapiens)"
measured_endpoint = "pIC50"
value_reported = 7.03

[[record]]
substance = "Hexanoyl-HSDAVFTDNYTRLAKQVAAKKYLQSIKNKRYGGPSSGAPPPS [Agonist P173]"
assayed_system = "human VPAC2 (Homo sapiens)"
measured_endpoint = "pIC50"
value_reported = 9.26

[[record]]
substance = "Hexanoyl-HSDAVFTDNYTRLR[Aib]QVAA[Aib][Orn]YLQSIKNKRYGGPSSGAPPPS [Agonist P342]"
assayed_system = "human VPAC2 (Homo sapiens)"
measured_endpoint = "pIC50"
value_reported = 9.46

[[record]]
substance = "Hexanoyl-HSDAVFTDNYTRLRKQVAAQKYLQSIKNKRYGGPSSGAPPPS [Agonist P150]"
assayed_system = "human VPAC2 (Homo sapiens)"
measured_endpoint = "pIC50"
value_reported = 9.60

[[record]]
substance = "HSDAVFTDNYTRLRKQVAAKKYLQSIKNKRF [Agonist P34]"
assayed_system = "human VPAC2 (Homo sapiens)"
measured_endpoint = "pIC50"
value_reported = 9.04

[[record]]
substance = "Hexanoyl-HSDAVFTDNYTRLLAQLALQKYLQSIKNKRYGGPSSGAPPPS [Agonist P195]"
assayed_system = "human VPAC2 (Homo sapiens)"
measured_endpoint = "pIC50"
value_reported = 8.63

[[record]]
substance = "Hexanoyl-HSDAVFTDNYTRLRQQVAAKKYLQSIKNKRYGGPSSGAPPPS [Agonist P177]"
assayed_system = "human VPAC2 (Homo sapiens)"
measured_endpoint = "pIC50"
value_reported = 9.15

[[record]]
substance = "Hexanoyl-HSDAVFTDNYTRLKAQVAAKKYLQSIKNKRYGGPSSGAPPPS [Agonist P141]"
assayed_system = "human VPAC2 (Homo sapiens)"
measured_endpoint = "pIC50"
value_reported = 9.19

[[record]]
substance = "HSDAVFTDNYTRLRRQVAAKKYLQSIKNKRYGGPSSGAPPPS [Agonist P72]"
assayed_system = "human VPAC2 (Homo sapiens)"
measured_endpoint = "pIC50"
value_reported = 8.82

[[record]]
substance = "Hexanoyl-H[Aib]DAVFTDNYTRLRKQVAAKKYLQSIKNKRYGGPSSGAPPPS [Agonist P166]"
assayed_system = "human VPAC2 (Homo sapiens)"
measured_endpoint = "pIC50"
value_reported = 9.34

[[record]]
substance = "Hexanoyl-HSDAVFTDNYTRLRKQVALKKYLQSIKNKRYGGPSSGAPPPS [Agonist P155]"
assayed_system = "human VPAC2 (Homo sapiens)"
measured_endpoint = "pIC50"
value_reported = 9.15

[[record]]
substance = "Hexanoyl-HSDAVFTDNYTRLRKQVAAKKYLQNIKNKRYGGPSSGAPPPS [Agonist P125]"
assayed_system = "human VPAC2 (Homo sapiens)"
measured_endpoint = "pIC50"
value_reported = 9.72

[[record]]
substance = "Hexanoyl-HSDAVFTDNYTRLRKQVAAKKYFQSIKNKRYGGPSSGAPPPS [Agonist P231]"
assayed_system = "human VPAC2 (Homo sapiens)"
measured_endpoint = "pIC50"
value_reported = 9.26

[[record]]
substance = "Hexanoyl-HSDAVFTDNYTRLRKQVAAKKY[Aib]QSIKNKRYGGPSSGAPPPS [Agonist P236]"
assayed_system = "human VPAC2 (Homo sapiens)"
measured_endpoint = "pIC50"
value_reported = 9.43

[[record]]
substance = "Hexanoyl-HSDAVFTDNYTRLR[Aib]QVAAVKYLQSIKNKRYGGPSSGAPPPS [Agonist P262]"
assayed_system = "human VPAC2 (Homo sapiens)"
measured_endpoint = "pIC50"
value_reported = 9.21

[[record]]
substance = "Hexanoyl-HSDAVFTDNYTRLRKQVAAKKYLQSIKNKRYGGPSSGAPPPC [Agonist P120]"
assayed_system = "human VPAC2 (Homo sapiens)"
measured_endpoint = "pIC50"
value_reported = 9.36


* * *

- assayed-system: human VPAC2 (Homo sapiens, UniProt P41587)
- Construct: expressed in transfected cells
- Sequence (P41587 24-438): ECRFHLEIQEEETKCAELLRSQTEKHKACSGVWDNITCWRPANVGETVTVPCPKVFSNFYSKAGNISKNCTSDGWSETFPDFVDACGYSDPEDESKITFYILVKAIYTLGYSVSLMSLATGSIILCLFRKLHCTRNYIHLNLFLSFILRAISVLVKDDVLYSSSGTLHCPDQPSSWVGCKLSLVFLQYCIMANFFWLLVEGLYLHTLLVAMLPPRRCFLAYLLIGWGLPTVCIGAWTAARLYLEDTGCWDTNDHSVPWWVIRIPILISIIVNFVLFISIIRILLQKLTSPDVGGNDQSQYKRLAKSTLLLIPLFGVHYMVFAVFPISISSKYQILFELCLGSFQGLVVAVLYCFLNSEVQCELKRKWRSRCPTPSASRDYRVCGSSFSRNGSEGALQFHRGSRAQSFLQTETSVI
- run-description: Filter binding assay, membranes of stable VPAC2 cell line, 125I-labeled VIP tracer (Table 2)
- protocol-conditions: read-out: Human VPAC2 Receptor Binding
Where no end group is shown, it is not given here. [ ]: non-standard residue; d: D form. The star is where a group is joined. hArg = N=C(N)NCCCC[C@H](N)C(=O)O; Orn = NCCC[C@H](N)C(=O)O; Hexanoyl = CCCCCC(=O)*; Aib = CC(C)(N)C(=O)O
# Lookup of reported log10 of IC50 keyed by entry
measured-endpoint: log10 of IC50 (log10 of the value in nM)

[[record]]
substance = "Hexanoyl-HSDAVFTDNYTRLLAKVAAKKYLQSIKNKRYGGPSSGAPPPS [Agonist P135]"
value_reported = -0.37

[[record]]
substance = "Hexanoyl-HSDAVFTDNYTRLR[Aib]QVAAAKYLQSIKNKRYGGPSSGAPPPS [Agonist P263]"
value_reported = -0.42

[[record]]
substance = "Hexanoyl-HSDAVFTDNYTKLKKQVAAKKYLQSIKNKKYGGPSSGAPPPS [Agonist P103]"
value_reported = -1.10

[[record]]
substance = "Hexanoyl-HSDAVFTDNYTRL[Aib]KQVAAVKYLQSIKNKRYGGPSSGAPPPS [Agonist P269]"
value_reported = 1.00

[[record]]
substance = "Hexanoyl-HSDAVFTDNYTRLRAQVAAKKYLQSIKNKRYGGPSSGAPPPS [Agonist P139]"
value_reported = -0.47

[[record]]
substance = "Hexanoyl-HSDAVFTDNYTRLRKQVAATKYLQSIKNKRYGGPSSGAPPPS [Agonist P152]"
value_reported = -0.43

[[record]]
substance = "Hexanoyl-HSDAVFTDNYTRL[Aib]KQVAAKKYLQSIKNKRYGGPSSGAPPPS [Agonist P167]"
value_reported = 0.06

[[record]]
substance = "Hexanoyl-HSDAVFTDNYTRLRKQVAAKFYLQSIKNKRYGGPSSGAPPPS [Agonist P186]"
value_reported = -0.06

[[record]]
substance = "Hexanoyl-H[dA]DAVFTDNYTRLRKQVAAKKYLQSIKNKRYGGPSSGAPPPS [Agonist P101]"
value_reported = -0.74

[[record]]
substance = "Hexanoyl-HSDAVFTDNYTRLRKQVAAKKFLQSIKNKRYGGPSSGAPPPS [Agonist P130]"
value_reported = -0.37

[[record]]
substance = "Hexanoyl-HSDAVFTDNYT[Orn]LR[Aib]QVAA[Aib]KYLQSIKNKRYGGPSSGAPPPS [Agonist P344]"
value_reported = -0.60

[[record]]
substance = "Hexanoyl-HSDAVFTDNYTRLQKQVAAKQYLQSIKNKRYGGPSSGAPPPS [Agonist P253]"
value_reported = 0.25

[[record]]
substance = "Hexanoyl-HSDAVFTDNYTRLRKQVAAKKYLQSLKNKRYGGPSSGAPPPS [Agonist P107]"
value_reported = -0.80

[[record]]
substance = "Hexanoyl-HSDAVFTDNYTRLRKQVAAKKYWQSIKNKRYGGPSSGAPPPS [Agonist P230]"
value_reported = -0.12

[[record]]
substance = "Hexanoyl-HSDAVFTDNYTRL[hArg][Orn]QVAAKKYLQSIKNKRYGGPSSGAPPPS [Agonist P308]"
value_reported = -0.47

[[record]]
substance = "HSDAVFTDNYTRLRKQVAAKKYLQSIKRGGPSSGAPPPS [Agonist P82]"
value_reported = 0.28

[[record]]
substance = "Hexanoyl-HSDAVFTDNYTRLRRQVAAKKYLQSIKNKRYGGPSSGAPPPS [Agonist P176]"
value_reported = 0.84

[[record]]
substance = "HSDAVFTDNYTREKEKVAAKKYLQSIKNKRYGGPSSGAPPPS [Agonist P87]"
value_reported = 3.05

[[record]]
substance = "Hexanoyl-HSDAVFTDNYTRLRKQVAAKKYLQSVKNKRYGGPSSGAPPPS [Agonist P109]"
value_reported = -0.96

[[record]]
substance = "Hexanoyl-HSDAVFTDNYTRLR[Aib]KVAA[Aib]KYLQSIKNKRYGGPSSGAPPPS [Agonist P321]"
value_reported = -0.54

[[record]]
substance = "Hexanoyl-HSDAVFTDNYTRL[Aib]KQVAAK[Aib]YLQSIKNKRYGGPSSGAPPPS [Agonist P244]"
value_reported = 1.43

[[record]]
substance = "Hexanoyl-HSDAVFTDNYTRLRKQVAAKKYLQYIKNKRYGGPSSGAPPPS [Agonist P127]"
value_reported = -0.64

[[record]]
substance = "Hexanoyl-HSDAVFTDNYTRLR[Aib]QKAA[Aib]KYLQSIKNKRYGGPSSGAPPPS [Agonist P323]"
value_reported = -0.49

[[record]]
substance = "Hexanoyl-HSDAVFTDNYTRLRKQVAAKKWLQSIKNKRYGGPSSGAPPPS [Agonist P129]"
value_reported = -0.42

[[record]]
substance = "Hexanoyl-HSDAVFTDNYTRLRKQVAAKKILQSIKNKRYGGPSSGAPPPS [Agonist P133]"
value_reported = 0.72

[[record]]
substance = "Hexanoyl-HSDAVFTRNYTRLRKQVAAKKYLQSIKNKRYGGPSSGAPPPS [Agonist P162]"
value_reported = 0.57

[[record]]
substance = "Hexanoyl-HSDAVFTDNYTRLRKQVAAKKYLQSIKNKRFGGPSSGAPPPS [Agonist P203]"
value_reported = -0.74

[[record]]
substance = "Hexanoyl-HSDAVFTDQYTRLR[Aib]QVAA[Aib]KYLQSIKQKRYGGPSSGAPPPS [Agonist P315]"
value_reported = -0.54

[[record]]
substance = "Hexanoyl-HSDAVFTDNYTRLR[Aib]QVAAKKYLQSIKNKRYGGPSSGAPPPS [Agonist P168]"
value_reported = -0.68

[[record]]
substance = "Hexanoyl-HSDAVFTDNYTRLR[Aib]QVAA[Aib]AYLQSIKNKRYGGPSSGAPPPS [Agonist P341]"
value_reported = 0.38

[[record]]
substance = "Hexanoyl-HSD[Aib]VFTDNYTRLRKQVAAKKYLQSIKNKRYGGPSSGAPPPS [Agonist P209]"
value_reported = -0.70

[[record]]
substance = "Hexanoyl-HSDAVFTEEYTRLQKQVAAKQYLQSIKNKRYGGPSSGAPPPS [Agonist P165]"
value_reported = 1.26

[[record]]
substance = "Hexanoyl-HSDAVFTDNYTRLFKQVAAKKYLQSIKNKRYGGPSSGAPPPS [Agonist P175]"
value_reported = 1.12


Reference source for all entries: patent US20080026996A1
